measured.on: p52p52 homodimer (Homo sapiens, UniProt Q00653 4-332)
Sequence: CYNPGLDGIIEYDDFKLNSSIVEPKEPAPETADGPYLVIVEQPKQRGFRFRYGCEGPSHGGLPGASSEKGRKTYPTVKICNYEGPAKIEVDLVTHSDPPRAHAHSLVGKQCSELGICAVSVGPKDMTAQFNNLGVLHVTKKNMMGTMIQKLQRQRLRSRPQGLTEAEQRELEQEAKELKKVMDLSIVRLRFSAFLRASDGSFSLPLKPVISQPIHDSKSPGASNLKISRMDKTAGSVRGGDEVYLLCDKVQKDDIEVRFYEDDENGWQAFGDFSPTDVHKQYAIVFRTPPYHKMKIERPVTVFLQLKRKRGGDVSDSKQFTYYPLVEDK
method.summary: protein binding microarray; high values mean tight binding
experimental.conditions: dsDNA, one strand shown
quantity.measured: binding signal (z-score)
Report the value in z-score with no unit label.

The examples below pair each entry with its known result.
biopolymer.sequence | measure.unit | binding signal
GAGAACTCCCC | z-score | 1.06
CGGAACGTCCC | z-score | 0.505
GGATTTTCCCC | z-score | 2.75
GAGAACTTCCT | z-score | -0.718
AAATGCTTCCC | z-score | -0.425

Consider the record given below.
State the recorded binding signal for this entry: GGAAATCCCCT 3.23

----------
measured.on: RELA (p65) subunit of heterodimer;p52 subunit (Homo sapiens;Homo sapiens, UniProt Q04206;Q00653 1-307;4-332)
method.summary: protein binding microarray; high values mean tight binding
experimental.conditions: dsDNA, one strand shown
Classify by measured binding signal: Yes if it is equal to or exceeds 0.3 z-score, No if it is smaller.

biopolymer.sequence | assigned.category
GAAAATCTCCC | Yes

Answer whether binding signal of AGGAATATCCC is greater than or equal to 0.3 z-score. Yes

Follow-up item: GGGAATCTCCT Yes

Follow-up item: AAGTGATTCCT No

Follow-up item: AAAATACCCCT Yes

Follow-up item: GAGATTTTCCT No

Follow-up item: GAGGTAGTCCC Yes

Follow-up item: CAATACTTCCT No

Follow-up item: GAAAGACCCCC Yes

Follow-up item: CGGATTGCCCC Yes

----------
measured.on: RELB subunit;p52 subunit (Homo sapiens;Homo sapiens, UniProt Q01201;Q00653 120-401;4-332)
Sequence 1: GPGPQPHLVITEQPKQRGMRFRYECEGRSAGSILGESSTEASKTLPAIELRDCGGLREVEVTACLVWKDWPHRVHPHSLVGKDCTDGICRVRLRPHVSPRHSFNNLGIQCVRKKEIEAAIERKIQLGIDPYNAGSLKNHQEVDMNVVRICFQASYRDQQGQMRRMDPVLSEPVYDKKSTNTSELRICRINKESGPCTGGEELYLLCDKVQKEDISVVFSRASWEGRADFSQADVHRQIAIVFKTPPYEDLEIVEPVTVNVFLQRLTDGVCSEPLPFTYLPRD
Sequence 2: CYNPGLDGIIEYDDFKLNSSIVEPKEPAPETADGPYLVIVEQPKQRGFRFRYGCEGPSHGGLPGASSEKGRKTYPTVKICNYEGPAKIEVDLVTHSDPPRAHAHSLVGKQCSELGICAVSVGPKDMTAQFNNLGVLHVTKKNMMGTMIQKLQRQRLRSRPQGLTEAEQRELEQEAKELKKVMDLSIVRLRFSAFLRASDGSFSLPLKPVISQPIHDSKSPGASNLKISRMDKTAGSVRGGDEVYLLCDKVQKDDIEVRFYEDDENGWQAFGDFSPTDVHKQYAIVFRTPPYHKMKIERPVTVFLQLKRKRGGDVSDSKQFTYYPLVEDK
method.summary: protein binding microarray; high values mean tight binding
experimental.conditions: dsDNA, one strand shown
quantity.measured: binding signal

biopolymer.sequence | measured.on | measured
GGAGATTCCCC | RELB subunit;p52 subunit (Homo sapiens;Homo sapiens, UniProt Q01201;Q00653 120-401;4-332) | 2.22 z-score
CAGGTCATCCT | RELB subunit;p52 subunit (Homo sapiens;Homo sapiens, UniProt Q01201;Q00653 120-401;4-332) | -0.916 z-score
CAAGGGTCCCT | RELB subunit;p52 subunit (Homo sapiens;Homo sapiens, UniProt Q01201;Q00653 120-401;4-332) | 0.276 z-score
CGGATGGCCCT | RELB subunit;p52 subunit (Homo sapiens;Homo sapiens, UniProt Q01201;Q00653 120-401;4-332) | -0.331 z-score
AAGAAGGTCCT | RELB subunit;p52 subunit (Homo sapiens;Homo sapiens, UniProt Q01201;Q00653 120-401;4-332) | -0.511 z-score
GAGAGCGCCCT | RELB subunit;p52 subunit (Homo sapiens;Homo sapiens, UniProt Q01201;Q00653 120-401;4-332) | -0.95 z-score

Consider the record given below.
State the recorded binding signal for this entry: GAAGATACCCT 0.032 z-score

----------
measured.on: C-Rel subunit;p50 subunit (Homo sapiens;Homo sapiens, UniProt Q04864;P19838 1-285;7-356)
Sequence (Q04864 1-285, chain 1 of 2): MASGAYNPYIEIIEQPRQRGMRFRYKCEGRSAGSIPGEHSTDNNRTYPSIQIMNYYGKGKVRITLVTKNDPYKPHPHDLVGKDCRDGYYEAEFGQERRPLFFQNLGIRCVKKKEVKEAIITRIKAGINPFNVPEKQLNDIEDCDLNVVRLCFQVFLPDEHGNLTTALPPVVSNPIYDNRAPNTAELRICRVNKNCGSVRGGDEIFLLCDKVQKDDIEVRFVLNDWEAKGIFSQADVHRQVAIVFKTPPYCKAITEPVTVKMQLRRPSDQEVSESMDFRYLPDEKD
Sequence (P19838 7-356, chain 2 of 2): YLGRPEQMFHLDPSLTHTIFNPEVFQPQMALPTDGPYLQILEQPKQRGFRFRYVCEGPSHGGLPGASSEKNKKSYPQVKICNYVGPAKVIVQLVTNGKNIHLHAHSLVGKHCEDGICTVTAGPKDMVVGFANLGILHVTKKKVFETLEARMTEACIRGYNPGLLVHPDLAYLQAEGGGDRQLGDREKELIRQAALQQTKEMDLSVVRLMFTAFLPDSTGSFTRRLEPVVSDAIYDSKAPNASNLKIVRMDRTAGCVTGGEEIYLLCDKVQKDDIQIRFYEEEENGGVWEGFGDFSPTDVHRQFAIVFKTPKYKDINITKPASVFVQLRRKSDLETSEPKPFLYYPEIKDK
method.summary: protein binding microarray; high values mean tight binding
experimental.conditions: dsDNA, one strand shown
quantity.measured: binding signal (z-score)
Report the value in z-score with no unit label.

// lookup binding signal | system=C-Rel subunit;p50 subunit (Homo sapiens;Homo sapiens, UniProt Q04864;P19838 1-285;7-356) | key= GAAGGCGTCCC -0.0533

Follow-up item: CAATGGGCCCC -0.565

Follow-up item: CGGGACTCCCC 1.93

Follow-up item: GAAGTTGTCCT -0.931

Follow-up item: GAGAAAACCCT 0.245

Follow-up item: CAGGATATCCC -0.116

Follow-up item: AAGGATATCCT -1.41

Follow-up item: GGAAATTTCCT 0.9

----------
Parameter: binding signal. Scope: all listed entries.
measured.on: RELA (p65) subunit of heterodimer;p50 subunit (Homo sapiens;Homo sapiens, UniProt Q04206;P19838 1-307;7-356)
Sequence (Q04206 1-307, chain 1 of 2): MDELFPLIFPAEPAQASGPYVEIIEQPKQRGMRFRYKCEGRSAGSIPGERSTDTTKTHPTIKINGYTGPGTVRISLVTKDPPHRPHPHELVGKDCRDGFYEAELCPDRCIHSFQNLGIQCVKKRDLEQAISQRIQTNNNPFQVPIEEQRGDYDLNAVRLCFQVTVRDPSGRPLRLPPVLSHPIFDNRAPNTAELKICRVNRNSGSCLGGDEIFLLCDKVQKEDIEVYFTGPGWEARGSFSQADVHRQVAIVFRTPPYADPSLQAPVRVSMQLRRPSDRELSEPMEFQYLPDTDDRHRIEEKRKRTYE
Sequence (P19838 7-356, chain 2 of 2): as the sequence (P19838 7-356, chain 2 of 2) above
method.summary: protein binding microarray; high values mean tight binding
experimental.conditions: dsDNA, one strand shown
Report the value in z-score with no unit label.

biopolymer.sequence | binding signal (z-score)
CAGGTCATCCT | -1.21
AAGTGGCCCCC | -0.101
GGATGATTCCT | -0.708

State the recorded binding signal for this entry: AGGTACATCCT -0.495

Follow-up item: CAGTTACTCCT -0.763

----------
measured.on: RELA (p65) subunit of heterodimer;p52 subunit (Homo sapiens;Homo sapiens, UniProt Q04206;Q00653 1-307;4-332)
method.summary: protein binding microarray; high values mean tight binding
experimental.conditions: dsDNA, one strand shown
Classify by measured binding signal: t if it is equal to or exceeds 0.8 z-score, f if it is smaller.

Check out these entries, answers already filled in.
biopolymer.sequence | assigned.category
GGGTATATCCC | t
CAAGAGGTCCC | f
CGGGGACCCCT | f
GGGTAAGTCCT | t
AGATTACCCCC | t

Answer whether binding signal of CAGGGGTTCCT is greater than or equal to 0.8 z-score. f

Follow-up item: CAAATGGTCCT f

Follow-up item: CAAGAGATCCT f

Follow-up item: GAGAAGCCCCT t

----------
measured.on: p52p52 homodimer (Homo sapiens, UniProt Q00653 4-332)
Sequence: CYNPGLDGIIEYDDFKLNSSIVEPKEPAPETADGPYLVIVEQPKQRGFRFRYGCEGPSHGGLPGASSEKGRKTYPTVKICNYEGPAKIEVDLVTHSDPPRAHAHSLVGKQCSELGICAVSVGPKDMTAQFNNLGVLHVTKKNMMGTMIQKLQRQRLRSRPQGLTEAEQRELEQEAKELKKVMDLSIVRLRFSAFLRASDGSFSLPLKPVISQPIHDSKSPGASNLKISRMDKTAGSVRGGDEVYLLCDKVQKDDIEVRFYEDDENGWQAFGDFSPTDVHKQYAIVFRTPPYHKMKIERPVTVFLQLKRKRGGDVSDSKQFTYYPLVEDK
method.summary: protein binding microarray; high values mean tight binding
experimental.conditions: dsDNA, one strand shown
quantity.measured: binding signal (z-score)
Report the value in z-score with no unit label.

The examples below pair each entry with its known result.
biopolymer.sequence | binding signal, z-score
GGAGGTACCCT | -0.0665
AAGGTTATCCC | 0.0211

State the recorded binding signal for this entry: CAAAGGCTCCT -0.784

Follow-up item: GAGGTTATCCT -0.329

----------
measured.on: p50p50 homodimer (Homo sapiens, UniProt P19838 7-356)
Sequence (P19838 7-356): as the sequence (P19838 7-356, chain 2 of 2) above
method.summary: protein binding microarray; high values mean tight binding
experimental.conditions: dsDNA, one strand shown
Parameter: binding signal. Scope: all listed entries.
Report the value in z-score with no unit label.

The examples below pair each entry with its known result.
biopolymer.sequence | measured
AAGGTAGCCCC | 0.424
AAATTCATCCT | -0.972
GAAAACGTCCT | -1.26

// lookup binding signal | system=p50p50 homodimer (Homo sapiens, UniProt P19838 7-356) | key= CAAGTCACCCC -0.66

Follow-up item: AGAGGTTCCCC 1.06

Follow-up item: AAGAGGTTCCT -1.79

Follow-up item: CAAGACCTCCC -1.11

Follow-up item: GGAGGTACCCT 0.0465

Follow-up item: CAGTGCATCCT -2.12

Follow-up item: CGATGTACCCC 0
